From: a melting point compilation (Tetko et al.; mined from patent text by program, amines drawn as free bases though some values may be those of a salt)

Listing of entries alongside the reported melting point.
metric.name: melting point

>>> print(df.to_string())
                                    compound    metric_name           result
 0  COc1ccc(S(=O)(=O)Cl)cc1N1CCN(C(=O)C(F)(F)F)CC1  melting point    125 to 127 °C
 1  CC(C)[C@@H]1C[C@H](O)[C@H](CC2CCCCC2)NC1=O  melting point      97 to 99 °C
 2        CN(C=O)c1cc(F)ccc1C(=O)CS(C)(=O)=O  melting point  94.5 to 95.5 °C
 3  NC(=O)C1CCN(c2cc(-c3ccc(Cl)cc3)nc3ccc(Cl)cc23)CC1  melting point    272 to 275 °C
 4      COc1ccc(-c2cc3ccc(Cl)cc3[nH]c2=O)cc1  melting point    256 to 257 °C
 5  CC(C)(C)c1cc(-c2n[nH]c3ncccc23)cc(C(C)(C)C)c1O  melting point    216 to 217 °C
 6  O=c1[nH]cnc2c1sc(=O)n2C1OC(CO)C(O)C1O (stereo not given)  melting point    216 to 218 °C
 7  COC(=O)Nc1cc(Oc2ccc3c(C(=O)Nc4cccc(C(F)(F)F)c4)cccc3c2)ccn1  melting point    230 to 232 °C
 8  COc1c(N2CCC(n3cc(C)nn3)C2)c(F)cc2c(=O)c(C(=O)O)cn(C3CC3)c12 (stereo not given)  melting point    174 to 176 °C
 9  CC(C)C1=CC(=O)C2=C(CCC3C(C)(C(=O)O)CCCC23C)C1=O (stereo not given)  melting point    207 to 209 °C
10  COC(=O)c1ccc(C(=O)Nc2cccc(Nc3nc(-c4cccnc4)cs3)c2)cc1  melting point           237 °C
11  COC(=O)c1ncc(OS(=O)(=O)c2ccc(C)cc2)c2c1[nH]c1ccccc12  melting point    230 to 231 °C
12  COc1cc(N)c(Cl)cc1C(=O)NCC1CCN(CCCCCCOc2ccccc2)CC1  melting point    113 to 115 °C
13  Cc1ncc2cc(-c3c(Cl)cccc3Cl)c(NC(=O)N(C)C)nc2n1  melting point    177 to 181 °C
14  COc1ccc(N2c3ccccc3S(=O)(=O)c3ccccc32)cc1  melting point    265 to 266 °C

----------
metric.name: melting point

>>> print(df.to_string())
                                    compound         result
 0  CC(C)(c1ccc(C(=O)Nc2cn3cc(Cl)ccc3n2)cc1)c1nnn[nH]1  266 to 267 °C
 1  Cc1ccc(-c2oc(C(F)(F)F)nc2-c2ccccc2)cc1S(N)(=O)=O  156 to 157 °C
 2                    CCOC(=O)C(=O)Nc1cccnc1   98 to 100 °C
 3    CCn1ncc2c(O)c(C(=O)O)c(CCc3ccccc3)nc21  160 to 161 °C
 4                    Cc1cc2cc(C(=O)O)ccc2s1  220 to 222 °C
 5  O=C(O)CS(=O)(=O)c1ccc2c(-c3ccccc3F)noc2c1  168 to 169 °C
 6  CCOC(=O)c1c(CCCCn2cncn2)nc2sc3c(c2c1-c1ccc(OC)c(OC)c1)CCN(C(=O)c1ccc(Cl)cc1)C3  165 to 166 °C
 7            Cn1cc(C=O)c2ccc3oc4ccccc4c3c21  163 to 165 °C
 8              CC(C)(C)OC(=O)N1Cc2ccccc2CN1    68 to 71 °C
 9         O=C1Nc2cc(Cl)cc3c2N(CC3)c2ccccc21  252 to 255 °C
10             COC(=O)c1c(NC(C)=O)sc2c1CCCC2  103 to 106 °C
11  CC(C)N(CC(O)COc1ccccc1C(=O)Nc1cccc2[nH]ccc12)C(C)C (stereo not drawn)         160 °C
12  CC(C)Cn1c(CNC(=O)OC(C)(C)C)c(-c2ccccc2)c2cc(OC(C)(C)C(N)=O)ccc2c1=O  219 to 220 °C

----------
metric.name: melting point

>>> df
                                    compound         result
 0  O=C(O)C(c1ccc(F)cc1)N1C(=O)c2ccccc2C1=O (configuration not stated)  174 to 180 °C
 1                 CC(=O)n1ncc2c(O)ccc(C)c21  135 to 136 °C
 2  COCc1nccn1CC(=O)c1ccc(-c2ccc(N3C[C@H](Cn4ccnn4)OC3=O)cc2F)cn1    78 to 80 °C
 3  Cn1cc(C(=O)c2sc(NC(=O)c3ccncc3)nc2-c2ccco2)ccc1=O  294 to 295 °C
 4  COc1cc(C(=O)C=Cc2ccncc2)ccc1OCC(=O)Nc1nc2ccccc2s1  206 to 207 °C
 5  O=C1N(Cc2nnc(Cl)s2)c2ccccc2C12COc1cc3c(cc12)OCO3 (configuration not stated)  194 to 197 °C
 6  CSc1cc2c(cc1C(F)(F)F)N(C(=O)Nc1cccc(C(=O)Nc3ccncc3)c1)CC2       > 200 °C
 7  O=C(O)c1cccc(COc2ccccc2Cl)c1OCc1ccccc1Cl    96 to 98 °C
 8  O=C1C2CCCCC2C(=O)N1CCOC(OCCN1C(=O)C2CCCCC2C1=O)(C(=O)c1ccccc1)c1ccccc1 (configuration not stated)  115 to 116 °C
 9  C[C@@H](n1ccn(-c2ccc(-n3ccnn3)cc2)c1=O)[C@](O)(Cn1cncn1)c1ccc(F)cc1F  178 to 181 °C
10      CCOc1ccc(OC)c2c1CCC([N+](=O)[O-])=C2    90 to 92 °C
11  O=C(O)CNC(=O)c1sc(Nc2ccccc2)c2c1CCc1cnoc1-2  193 to 194 °C
12  CC(C)NC(=O)c1nc(-c2ccccc2)c(-c2ccc(=O)n(C)n2)s1         154 °C
13  Cc1cc(C)c(C)c(COc2cccc(-c3c(-c4ccccc4)coc3C(=O)NNC(=O)c3ccc(O)c(C#N)c3)c2)c1C  207 to 209 °C
14         COc1ccc2[nH]c(C=Cc3ccccc3Cl)cc2c1  135 to 137 °C
15  Cc1cnc(C)n2c1c(CCN1CCC(NC(=O)c3ccccc3)CC1)c1ccccc12  233 to 234 °C
16  Cc1ccc(NC(=O)c2c(C)cccc2NC(=O)OC(C)(C)C)cc1         250 °C
17  Cc1c(-c2ccccc2)oc2c(S(=O)CCCCCl)cccc2c1=O (configuration not stated)  124 to 125 °C
18  Nc1ccc(Cl)c(C(=O)NCCC23CC4CC(CC(C4)C2)C3)c1  147 to 149 °C
19     CCNC(=O)Nc1nc2cc(-c3cnc(OC)nc3)ccn2n1  243 to 248 °C
20  Cc1c(Cc2cccc(C(F)(F)F)c2)sc2c(-c3cccc(C(=O)NCCOC(C)C)c3)cccc12  121 to 122 °C
21  CC1(C)CC(Nc2nc(NC3CC(C)(C)NC(C)(C)C3)nc(NC3CC(C)(C)NC(C)(C)C3)n2)CC(C)(C)N1  219 to 221 °C
22  CC(C)COCCOc1ccc(OCC(O)CNCCNC(=O)N2CCOCC2)cc1 (configuration not stated)    95 to 96 °C
23  CN(C)CCNC(=O)c1cccc(-c2cccc3cn(Cc4cccc(C(F)(F)F)c4)nc23)c1  102 to 103 °C
24  Cc1nc(C=Cc2nc3ccc(F)cc3c(=O)n2-c2ccccc2C)cs1  211 to 212 °C
25  COP(=O)(OC)C(c1ccc(F)cc1)(c1ccccc1F)c1ccccc1Cl (configuration not stated)         132 °C
26       CCCc1c(C(=O)OC)[nH]c2c(C)ccc(Cl)c12  109 to 110 °C
27  Cc1cc(=O)c(C(=O)Oc2ccccc2)nn1-c1ccc(Cl)cc1  140 to 146 °C
28  CCc1cc(C(C)(C)c2ccc(C(C)(C)c3cc(CC)c(NC)c(CC)c3)cc2)cc(CC)c1NC  105 to 108 °C
29  CC(C)(C)OC(=O)N1CCC(c2ccc3oc(-c4ccc(S(C)(=O)=O)cc4F)nc3c2)CC1  168 to 171 °C
30         CCn1ncc2c(NCc3cccnc3)c3ccccc3nc21  282 to 284 °C
31  COC(=O)c1ccc(NN=CC(F)(F)F)cc1S(=O)(=O)NC(=O)Nc1nc(OC)cc(OC)n1  201 to 202 °C

----------
metric.name: melting point

>>> print(df.to_string())
                            chemical_string         result
0  CCOCc1nc2c(N)nc3c(c2n1NCCCNC(=O)NC(C)C)CCCC3  185 to 187 °C
1                 Cc1c(Cl)c(=O)[nH][nH]c1=O  305 to 310 °C
2                     CCCCn1c(=O)cn[nH]c1=O         135 °C
